- Test system: SK-MEL-28
- measurementDescription: NCI tumour cell line growth inhibition, 48 h
Calls of active or inactive are those of the source. No stated cut-off is given here; in the data, active = GI50 up to about 1.1 µM and inactive = higher.
Please answer using one outcome listed in YES (active), NO (inactive)

Ask | Record lookup: outcome of this test for CC[C@]12CCCN3CCc4c(n(c5ccccc45)C(=O)C1)[C@@H]32 ?
Reply | NO

Ask | Repeat for the following molecule: O=[Se](O)O
Reply | NO

Ask | Can you check CCOC(=O)C(Cc1ccccc1)NC(=O)c1ccc(/N=N/N(C)C)cc1 (stereo unspecified) next?
Reply | NO

Ask | Continue with CNC1C(O)CC(OC2C/C=C(\C)C/C(C)=C/C=C/CCC(C)CNC(=O)/C=C/C=C/C2C)OC1C (stereo unspecified)
Reply | YES

Ask | Similarly, O=C(Cc1c(C(=O)Nc2ccccc2)sc(C(=O)Nc2ccccc2)c1CC(=O)Nc1ccccc1)Nc1ccccc1 ?
Reply | YES

Ask | Now give it for N#Cc1nc(-c2ccsc2)oc1N too.
Reply | NO
